Data origin: patent US10105357B2

Tested on: MKN-45 (Gastric Adenocarcinoma)
method-description: Cell viability analysis, gastric cancer MKN-45
Format: cell-based, human
study-conditions: human, 72 h, 10 µM
measurement-label: cell viability (survival rate), MKN-45
Write the number on its own, no unit after it.

Prompt: So what does the record say about cell viability (survival rate), MKN-45 for CC1(C)S[C@@H]2[C@H](NC(=O)[C@H](N)c3ccccc3)C(=O)N2[C@H]1C(=O)O [Ampicillin Trihydrate] ?
Response: 56.3

Prompt: So what does the record say about cell viability (survival rate), MKN-45 for CN(C)[C@@H]1C(O)=C(C(N)=O)C(=O)[C@@]2(O)C(O)=C3C(=O)c4c(O)cccc4[C@@](C)(O)[C@H]3[C@H](O)[C@@H]12 [Oxytetracycline (Terramycin), Oxytetracycline] ?
Response: 56.7

Prompt: So what does the record say about cell viability (survival rate), MKN-45 for CC1(C)S[C@@H]2[C@H](NC(=O)[C@H](N)c3ccccc3)C(=O)N2[C@H]1C(=O)O [Ampicillin sodium] ?
Response: 77.9

Prompt: So what does the record say about cell viability (survival rate), MKN-45 for CN(C)[C@@H]1C(O)=C(C(N)=O)C(=O)[C@@]2(O)C(O)=C3C(=O)c4c(O)cccc4[C@@](C)(O)[C@H]3[C@H](O)[C@@H]12 [Oxytetracycline dihydrate] ?
Response: 81.4

---

So I've got a bunch of compounds here, and I need their viability at 10 µM values.
Tested on: Hep3B (hepatocellular carcinoma)
method-description: Cell viability analysis, hepatic cancer Hep3B
Type: cell-based, human
study-conditions: Homo sapiens, 72 h; Hep3B; repeated experiment; read-out: The results of antibiotic drug inhibiting cancer cell lines (cell viability analysis), Hep3B
Give the value; after it, write the unit.

Prompt: So what does the record say about viability at 10 µM for CC(C)/N=c1\cc2n(-c3ccc(Cl)cc3)c3ccccc3nc-2cc1Nc1ccc(Cl)cc1 ?
Response: 91.6%

Prompt: So what does the record say about viability at 10 µM for CC(C)(C)CC(C)(C)c1ccc(O)c(Cc2ccc(Cl)cc2Cl)c1 ?
Response: 135%

Prompt: So what does the record say about viability at 10 µM for CC[C@H](C)C(=O)O[C@H]1CCC=C2C=C[C@H](C)[C@H](CC[C@@H]3C[C@@H](O)CC(=O)O3)[C@H]21 ?
Response: 97.7%

Prompt: So what does the record say about viability at 10 µM for NC(=O)N/N=C/c1ccc([N+](=O)[O-])o1 ?
Response: 95.3%

Prompt: So what does the record say about viability at 10 µM for CC[C@@H]([C@H](C)O)n1ncn(-c2ccc(N3CCN(c4ccc(OC[C@@H]5CO[C@@](Cn6cncn6)(c6ccc(F)cc6F)C5)cc4)CC3)cc2)c1=O ?
Response: 95.2%

Prompt: So what does the record say about viability at 10 µM for CCCCCCCCCCCCCCCC[N+](C)(C)CCN(Cc1ccc(OC)cc1)c1ncccn1 [Thonzonium Bromide] ?
Response: 51.3%

Prompt: So what does the record say about viability at 10 µM for COc1c(C)c2c(c(O)c1C/C=C(\C)CCC(=O)O)C(=O)OC2 [Mycophenolic (Mycophenolate), Mycophenolic] ?
Response: 66.8%

---

System: PC3 (p53−) (Prostate Adenocarcinoma)
method-description: Cell viability analysis, prostate cancer PC3
Assay type: cell-based, human
study-conditions: Homo sapiens, 72 h, read-out: cell viability (survival rate), PC3, drug 10 μM, 72 hours, WST-1, OD450 nm
Counter-ions that a name gives are not always drawn.
measurement-label: viability at 10 µM (%)
Reply with just the number (in %).

Prompt: Observed viability at 10 µM on PC3 (p53−) (Prostate Adenocarcinoma) for Clc1ccc(C(Cn2ccnc2)OCc2ccsc2Cl)c(Cl)c1 (stereo not shown) , please.
Response: 40.7

Prompt: Observed viability at 10 µM on PC3 (p53−) (Prostate Adenocarcinoma) for CC1(C)S[C@@H]2[C@H](NC(=O)[C@H](NC(=O)N3CCN(S(C)(=O)=O)C3=O)c3ccccc3)C(=O)N2[C@H]1C(=O)O [Mezlocillin Sodium] , please.
Response: 97.8

Prompt: Observed viability at 10 µM on PC3 (p53−) (Prostate Adenocarcinoma) for COc1cc(Cc2cnc(N)nc2N)cc(OC)c1OC , please.
Response: 151

Prompt: Observed viability at 10 µM on PC3 (p53−) (Prostate Adenocarcinoma) for Fc1ccc([C@@H]2CCNC[C@H]2COc2ccc3c(c2)OCO3)cc1 [Paroxetine HCl] , please.
Response: 70.6

Prompt: Observed viability at 10 µM on PC3 (p53−) (Prostate Adenocarcinoma) for O=C(O)CCNC(=O)c1ccccc1 , please.
Response: 92.6

Prompt: Observed viability at 10 µM on PC3 (p53−) (Prostate Adenocarcinoma) for Cc1cn([C@@H]2C[C@@H](O)[C@H](CO)O2)c(=O)[nH]c1=O [Telbivudine (Sebivo, Tyzeka), Telbivudine] , please.
Response: 53.6

Prompt: Observed viability at 10 µM on PC3 (p53−) (Prostate Adenocarcinoma) for CCN1CCN(C(=O)N[C@@H](C(=O)N[C@@H]2C(=O)N3C(C(=O)O)=C(CSc4nnnn4C)CS[C@H]23)c2ccc(O)cc2)C(=O)C1=O , please.
Response: 104

---

System: TSGH-8301 (Urinary Bladder Carcinoma)
method-description: Cell viability analysis, bladder cancer TSGH-8301
Format: cell-based, human
study-conditions: drug 10 μM, 72 hours, WST-1, OD450 nm
measurement-label: cell viability (survival rate), TSGH
Write the number on its own, no unit after it.

Prompt: Observed cell viability (survival rate), TSGH on TSGH-8301 (Urinary Bladder Carcinoma) for C[C@@H]1[C@H](O)[C@@H](C)/C=C/C=C/CC/C=C/C=C/C=C/C=C/C(O[C@H]2O[C@H](C)[C@@H](O)[C@H](N)[C@@H]2O)CC2O[C@](O)(CC(O)C(O)CCC(O)CC(O)CC(O)CC(=O)O[C@H]1C)CC(O)C2C(=O)O (stereo partly drawn) , please.
Response: 42.1

Prompt: Observed cell viability (survival rate), TSGH on TSGH-8301 (Urinary Bladder Carcinoma) for CN(C/C=C/C#CC(C)(C)C)Cc1cccc2ccccc12.Cl [Terbinafine HCl (Lamisil)] , please.
Response: 50.6

Prompt: Observed cell viability (survival rate), TSGH on TSGH-8301 (Urinary Bladder Carcinoma) for CN(C)CCCN1c2ccccc2CCc2ccc(Cl)cc21.Cl [Clomipramine HCl (Anafranil)] , please.
Response: 46.2

Prompt: Observed cell viability (survival rate), TSGH on TSGH-8301 (Urinary Bladder Carcinoma) for O=C([O-])C(O)[C@H](O)[C@@H](O)[C@H](O)[C@H](O)CO.O=C([O-])C(O)[C@H](O)[C@@H](O)[C@H](O)[C@H](O)CO.[Ca+2] (stereo partly drawn) [Calcium Gluceptate] , please.
Response: 33.81

Prompt: Observed cell viability (survival rate), TSGH on TSGH-8301 (Urinary Bladder Carcinoma) for CCCCCCCCCCCCCCCC[N+](C)(C)C.[Br-] [Cetrimonium Bromide] , please.
Response: 34.8

Prompt: Observed cell viability (survival rate), TSGH on TSGH-8301 (Urinary Bladder Carcinoma) for CC1(C)S[C@@H]2[C@H](NC(=O)[C@H](N)c3ccc(O)cc3)C(=O)N2[C@H]1C(=O)[O-].[Na+] [Amoxicillin sodium (Amox), Amoxicillin sodium] , please.
Response: 45.4

---

So I've got a bunch of compounds here, and I need their viability at 10 µM values.
Test system: A375 (Amelanotic Melanoma)
method-description: Cell viability analysis, skin cancer A375
Format: cell-based, human
study-conditions: Homo sapiens, A-375, 72 h, read-out: cell viability (survival rate), A375, drug 10 μM, 72 hours, WST-1, OD450 nm
Counter-ions that a name gives are not always drawn.
Give the value; after it, write the unit.

Prompt: So what does the record say about viability at 10 µM for COc1c(N2C[C@@H]3CCCN[C@@H]3C2)c(F)cc2c(=O)c(C(=O)O)cn(C3CC3)c12 [Moxifloxacin hydrochloride] ?
Response: 94%

Prompt: So what does the record say about viability at 10 µM for Nc1nc(O)c2ncn(COC(CO)CO)c2n1 [Ganciclovir] ?
Response: 94.8%

Prompt: So what does the record say about viability at 10 µM for CC1(C)S[C@@H]2[C@H](NC(=O)[C@H](NC(=O)N3CCN(S(C)(=O)=O)C3=O)c3ccccc3)C(=O)N2[C@H]1C(=O)O [Mezlocillin Sodium] ?
Response: 107%

Prompt: So what does the record say about viability at 10 µM for C=C1[C@H](CO)[C@@H](O)C[C@@H]1n1cnc2c(=O)[nH]c(N)nc21 [Entecavir hydrate] ?
Response: 98.6%

Prompt: So what does the record say about viability at 10 µM for Nc1ccc(S(=O)(=O)Nc2ncccn2)cc1 [Sulfadiazine] ?
Response: 79.5%

Prompt: So what does the record say about viability at 10 µM for Nc1[nH]c(=O)ncc1F [Flucytosine (Ancobon), Flucytosine] ?
Response: 102%

Prompt: So what does the record say about viability at 10 µM for O=C1OC(CN2CCOCC2)CN1/N=C/c1ccc([N+](=O)[O-])o1 (stereo not shown) [Furaltadone HCl] ?
Response: 66%

Prompt: So what does the record say about viability at 10 µM for CN(C)CCC[C@@]1(c2ccc(F)cc2)OCc2cc(C#N)ccc21 [Escitalopram oxalate] ?
Response: 68%

Prompt: So what does the record say about viability at 10 µM for NC1CCN(c2c(F)cc3c(=O)c(C(=O)O)cn(C4CC4)c3c2Cl)C1 (stereo not shown) [Clinafloxacin (PD127391), Clinafloxacin] ?
Response: 59.3%

Prompt: So what does the record say about viability at 10 µM for CO[C@H]1/C=C/O[C@@]2(C)Oc3c(C)c(O)c4c(O)c(c(/C=N/N5CCN(C6CCCC6)CC5)c(O)c4c3C2=O)NC(=O)/C(C)=C\C=C\[C@H](C)[C@H](O)[C@@H](C)[C@@H](O)[C@@H](C)[C@H](OC(C)=O)[C@@H]1C [Rifapentine (Priftin), Rifapentine] ?
Response: 77.7%

Prompt: So what does the record say about viability at 10 µM for CO[C@H]1/C=C/O[C@@]2(C)Oc3c(C)c(O)c4c(O)c(c5c(nc6cc(C)ccn65)c4c3C2=O)NC(=O)/C(C)=C\C=C\[C@H](C)[C@H](O)[C@@H](C)[C@@H](O)[C@@H](C)[C@H](OC(C)=O)[C@@H]1C [Rifaximin (Xifaxan), Rifaximin] ?
Response: 59.5%

Prompt: So what does the record say about viability at 10 µM for CC1=C(C(=O)O)N2C(=O)[C@@H](NC(=O)[C@H](N)c3ccccc3)[C@H]2SC1 [Cephalexin (Cefalexin), Cephalexin] ?
Response: 92.7%

Prompt: So what does the record say about viability at 10 µM for Fc1ccc([C@@H]2CCNC[C@H]2COc2ccc3c(c2)OCO3)cc1 [Paroxetine HCl] ?
Response: 31.9%
